Please respond with reported viability at 1 µM for every item in the list.
Test system: OVCAR3 cells
Assay: MTT cell proliferation/viability assay, OVCAR3 ovarian cancer cells
Format: cell-based
Conditions: Homo sapiens, OVCAR-3, 48 hours, MTT, DMSO alone controls = 100% viability, Trial 1, read-out: Trial 1 OVCAR3 (viability)
Field format: number, assumed %, no unit text.

q: Which viability at 1 µM is reported for this compound? COc1ccc(-n2nc(C(C)(C)C)c3c2NC2=C(C(=O)CC(C)(C)C2)C3c2ccccc2Cl)cc1 (centres unmarked)
a: 41

q: Which viability at 1 µM is reported for this compound? CC1(C)CC(=O)C2=C(C1)Nc1c(c(C(C)(C)C)nn1-c1ccc(Cl)c(Cl)c1)C2c1cccc(OCc2ccccc2)c1 (centres unmarked)
a: 41

q: Which viability at 1 µM is reported for this compound? CCOc1ccc(C2C3=C(CC(C)(C)CC3=O)Nc3c2c(C(C)(C)C)nn3-c2ccc(Cl)cc2)cc1 (centres unmarked)
a: 42

q: Which viability at 1 µM is reported for this compound? Cc1ccc(C2C3=C(CC(C)(C)CC3=O)Nc3c2c(C(C)(C)C)nn3-c2ccc(C)cc2)cc1 (centres unmarked)
a: 42

q: Which viability at 1 µM is reported for this compound? COc1ccccc1C1C2=C(CC(C)(C)CC2=O)Nc2c1c(C(C)(C)C)nn2-c1ccc(Cl)c(C)c1 (centres unmarked)
a: 42

Taken from patent US20070010548A1.
